For reference, the following IC50 results for mouse MMP-7 (Mus musculus) were taken from various sources.
Could you please classify the records by IC50 using these ranges: 0: < 80 nM; 1: ≥ 80 nM and < 200 nM; 2: ≥ 200 nM

>>> class_assignment("Cc1ccc2nnn(C[C@@H]3CC[C@H](C(=O)c4ccc(OCc5cccc(Cl)c5)cc4)[C@H]3C(=O)O)c(=O)c2c1 (racemic)")
0
>>> class_assignment("Cc1ccc2nnn(C[C@@H]3CC[C@H](C(=O)c4ccc(OCc5cccc(C(F)(F)F)c5)cc4)[C@H]3C(=O)O)c(=O)c2c1 (racemic)")
1
>>> class_assignment("Cc1cccc(COc2ccc(C(=O)[C@H]3CC[C@@H](Cn4nnc5ccc(C)cc5c4=O)[C@@H]3C(=O)O)cc2)c1 (racemic)")
1
>>> class_assignment("O=C(O)[C@H]1[C@H](Cn2nnc3ccc(C(F)(F)F)cc3c2=O)CC[C@@H]1C(=O)c1ccc(OCCC2CCOCC2)cc1 (stereo in doubt)")
1
>>> class_assignment("O=C(O)[C@H]1[C@H](Cn2nnc3ccccc3c2=O)CC[C@@H]1C(=O)c1ccc(OCc2ccc(Cl)c(Cl)c2)cc1 (racemic)")
2
>>> class_assignment("O=C(O)[C@@H]1[C@@H](Cn2nnc3ccc(C(F)(F)F)cc3c2=O)CC[C@H]1C(=O)c1ccc(OCCC2CCOCC2)cc1 (single isomer, unassigned)")
2
>>> class_assignment("O=C(O)[C@H]1[C@H](Cn2nnc3ccccc3c2=O)CC[C@@H]1C(=O)c1ccc(OCC2CCCC2)cc1 (racemic)")
1
>>> class_assignment("O=C(O)[C@@H]1[C@@H](Cn2nnc3ccc(C(F)(F)F)cc3c2=O)CC[C@H]1C(=O)c1ccc(OCCC2CCCCC2)cc1 (single isomer, unassigned)")
1
>>> class_assignment("O=C(O)[C@H]1[C@H](Cn2nnc3ccccc3c2=O)CC[C@@H]1C(=O)c1ccc(OCC2CCOCC2)cc1 (stereo in doubt)")
1
>>> class_assignment("O=C(O)[C@H]1[C@H](Cn2nnc3ccccc3c2=O)CC[C@@H]1C(=O)c1ccc(OCCC2CCOCC2)cc1 (stereo in doubt)")
2
>>> class_assignment("O=C(O)[C@H]1[C@H](Cn2nnc3ccccc3c2=O)CC[C@@H]1C(=O)c1ccc(OCc2ccccc2)cc1")
0
>>> class_assignment("Cc1ccc2nnn(C[C@H]3CC[C@@H](C(=O)c4ccc(OCc5cccc(C(F)(F)F)c5)cc4)[C@@H]3C(=O)O)c(=O)c2c1 (single isomer, unassigned)")
0
